A short record of pKd observed with CAVI (Homo sapiens, UniProt P23280) follows.
Sequence (P23280 21-290 limits assumed): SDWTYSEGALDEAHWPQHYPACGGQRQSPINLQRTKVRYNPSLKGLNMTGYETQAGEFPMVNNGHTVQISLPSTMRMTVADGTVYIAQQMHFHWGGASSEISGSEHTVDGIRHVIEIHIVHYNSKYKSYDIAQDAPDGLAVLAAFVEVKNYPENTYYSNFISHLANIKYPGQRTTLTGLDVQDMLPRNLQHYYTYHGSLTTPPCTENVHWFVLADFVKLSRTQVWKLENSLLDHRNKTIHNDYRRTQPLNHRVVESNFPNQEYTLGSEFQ
pKd: −log10 of the molar value.
Measure: pKd

NS(=O)(=O)c1ccc(NCC(CC(=O)NNC(=S)Nc2ccccc2)C(=O)NNC(=S)Nc2ccccc2)c(Cl)c1 (stereo not shown) [Compound 23b] : 6.00
COC(=O)CCN(c1ccc(S(N)(=O)=O)cc1)c1nc(C)cs1 : 5.15
NS(=O)(=O)c1ccc(NCC(Cc2n[nH]c(=S)n2-c2ccccc2)c2n[nH]c(=S)n2-c2ccccc2)c(Cl)c1 (stereo not shown) [Compound 25b] : 6.70
CCOC(=O)c1sc(N(CCC(=O)O)c2ccc(S(N)(=O)=O)cc2)nc1C : 4.62
